test system: Staphylococcus epidermidis ATCC 14990; experiment: Broth microdilution antibacterial susceptibility (MIC/MBC); type: cell-based; settings: broth microdilution, 35°C, 24 h
List of MIC, Se ATCC 14990 values.

| compound | MIC, Se ATCC 14990 |
| --- | --- |
| O=[N+]([O-])/C=C/c1ccc([N+](=O)[O-])cc1 [Compound 7, 1-nitro-4-((E)-2-nitrovinyl) benzene] | 4 µg/mL |
| CC/C(=C\c1cccc(O)c1)[N+](=O)[O-] [Compound 21, 3-((E)-2-nitrobut-1-enyl) phenol] | 2 µg/mL |
| C/C(=C\c1cccc(O)c1)[N+](=O)[O-] [Compound 20, 3-((E)-2-nitroprop-1-enyl) phenol] | 2 µg/mL |
| C/C(=C\c1ccc(O)cc1)[N+](=O)[O-] [Compound 17, 4-((E)-2-nitroprop-1-enyl) phenol] | 2 µg/mL |
| CC/C(=C\c1ccc(Cl)cc1)[N+](=O)[O-] [Compound 3] | 2 µg/mL |
| CC/C(=C\c1ccc([N+](=O)[O-])cc1)[N+](=O)[O-] [Compound 9] | 4 µg/mL |

Origin of the recorded values: paper PMC5007854
